# cond: 298.15 K; 101.33 kPa; Liquid; Pycnometric method
measurement.name: mass density (kg/m3)

molecule	mass density [kg/m3]
C1CC[NH2+]C1.CC(=O)[O-] [pyrrolidinium acetate]	1054.3
CC[NH+](C(C)C)C(C)C.O=C[O-] [ethyldiisopropylammonium formate]	1014.4
Cc1cccc[n+]1C.O=C[O-] [1,2-dimethylpyridinium formate]	1020.9
Cc1ccc[n+](C)c1C.O=C[O-] [1,2,3-trimethylpyridinium formate]	1167.6
C1CC[NH2+]C1.CCCCCCC(=O)[O-] [pyrrolidinium heptanoate]	972.1

###

# cond: 298.15 K; 101.33 kPa; Liquid; Cone and plate viscometry
measurement.name: viscosity (mPa·s)

compound	measurement.name	endpoint.value
O=C[O-].c1ccc2[nH+]cccc2c1 [quinolinium formate]	viscosity	8.2

I = C1CC[NH2+]C1.CCCCCCCCC(=O)[O-] [pyrrolidinium nonanoate]
II = C1CC[NH2+]C1.CC(=O)[O-] [pyrrolidinium acetate]
III = C1CC[NH2+]C1.O=[N+]([O-])[O-] [pyrrolidinium nitrate]
Order the records so the highest viscosity appears first and the lowest last. Lab note: final answer is the ordered label list.
I, II, III
(I: 74.4 mPa·s, II: 30.2 mPa·s, III: 5.2 mPa·s)

Values were extracted from the NIST ThermoML archive (doi:10.1016/j.fluid.2010.05.019).
